# System: UO-31
# assay_method_text: NCI tumour cell line growth inhibition, 48 h
Calls of active or inactive are those of the source. No stated cut-off is given here; in the data, active = GI50 up to about 1.1 µM and inactive = higher.
quantity_measured: GI50

Field: example entries. Status: answers known.
{"compound": "Nc1ccn(C2OC(CO)C(O)C2O)c(=O)n1 (configuration not stated)", "GI50": "6.15 µM (inactive)"}
{"compound": "COc1cc2oc3cc(=O)cc4oc(-c5ccccc5)cc(c2c2c1CCC(c1ccccc1)O2)c43 (configuration not stated)", "GI50": "55.6 µM (inactive)"}
{"compound": "O=[N+]([O-])c1ccc(C(c2c[nH]c3ccccc23)c2c[nH]c3ccccc23)cc1", "GI50": "10.9 µM (inactive)"}
{"compound": "O=C1C(=Cc2ccc([N+](=O)[O-])o2)C(=O)N(CCc2ccccc2)S(=O)(=O)N1CCc1ccccc1", "GI50": "45.3 µM (inactive)"}

Report GI50 for each item below.
1. CCOC(=O)C1=CC(C)(C(=O)OCC)Nc2c(nc(SC)n(C)c2=O)N1 (configuration not stated)
2. O=C(/C=C/c1cccc(Oc2ccccc2)c1)NCc1ccc(C(=O)NCCc2ccccc2)cc1
3. CN(C)c1ccc(C(N)=O)cn1

["> 10 µM (inactive)", "> 100 µM (inactive)", "> 100 µM (inactive)"]

Report GI50 for each item below.
1. CC(C)=NN/C=N\C(C#N)=C(/N)C#N
2. O/N=N/c1ccc([SH2]c2ccc3ccccc3c2)cn1
3. CO/N=C\c1cc(O)c(O)c(/C=N/OC)c1

1: > 100 µM (inactive); 2: 24.6 µM (inactive); 3: 11.3 µM (inactive)

Report GI50 for each item below.
1. CC1(C)O[C@@H]2[C@@H](COC(C)(C)O[C@H]2C2SCCCS2)O1
2. O=C1NC(N2CCCCC2)=N/C1=C\c1ccco1

1: > 100 µM (inactive); 2: > 100 µM (inactive)
